- Assay procedure: Oral bioavailability in Wistar Han rat at 5 mg/kg
- Type: ADME, organism-based
- Particulars: in vivo
Assay metric: bioavailability (%)

1) CCOc1cccnc1Oc1cncc(-c2ncc(C(=O)N[C@H]3CCOC3)cn2)c1 :: 31
2) CCOc1cccnc1Oc1cncc(-c2ncc(C(=O)NC(C)(C)CO)cn2)c1 :: 29

* * *

- Assay procedure: Half life in human
- Format: ADME
Assay metric: half-life (min)
All answers are understood in min, so give the number only.

*Q* # get_value(readout='half-life', item= CCOc1cccnc1Oc1cncc(-c2ncc(C(=O)N[C@H]3CCOC3)cn2)c1 [PF-06865571] )
*A* 300
